- System: NCI-H23
- Protocol Summary: NCI tumour cell line growth inhibition, 48 h
Activity calls are given as the source filed them. Rule as the data show it: active = GI50 up to about 1.1 µM and inactive = higher.
Result category, one only: active, inactive

> print(dat)
                                   molecule  experimental.system       cat
1  C[C@H](CCC(=O)NCC(=O)O)[C@H]1CC[C@H]2[C@@H]3[C@H](O)C[C@@H]4C[C@H](O)CC[C@]4(C)[C@H]3CC[C@]12C              NCI-H23  inactive
2  COC(C)(C)OCCN1CCN(CCN2C3=C(C=C(C(C)=O)C3)Sc3ccccc32)CC1              NCI-H23  inactive
3  CCc1cccc(C)c1NC(=S)NC(=O)c1ccccc1C(=O)NC(=S)Nc1c(C)cccc1CC              NCI-H23  inactive
4  COC1C(O)=C2C(=O)OC(C)(O)/C=C/C=C\C=C/C=C/C(c3ccccc3)NC(=O)/C=C/C=C/C=C/C=C/C2(C)C1O (stereo unspecified)              NCI-H23    active
5            O=Cc1ccc(OC[C@H]2COC(=O)N2)cc1              NCI-H23  inactive

Kindly provide the recorded test outcome for the following molecule: COc1cc(C2CC(C)(O)Oc3cc4c(cc32)OCO4)cc(OC)c1OC (stereo unspecified)
active

What classification did O=C1CC(c2c(-c3ccccc3)[nH]c3ccccc23)C(=O)N1c1ccccc1 (stereo unspecified) end up with in this test?
inactive

Per the assay record, what outcome was assigned to CCOC(=O)C1C(=O)C(C(=O)OCC)C(c2ccccc2)N(C)C1c1ccccc1 (stereo unspecified) ?
inactive

For "CSC(=S)N(C)NC(=O)c1cccc(C(=O)NN(C)C(=S)SC)n1" , which call appears in the assay record?
inactive

How was "CCc1nc(N)c2nc(-c3cccs3)oc2n1" classified in this test?
inactive

These entries and their values trace back to ChEMBL document CHEMBL1201862.
